Assay: PAMPA, Corning Gentest Pre-coated PAMPA plate
Type: in vitro ADME
Conditions: 1×PBS, pH 7.4, five hours, ambient temperature, read-out: Permeability (log Pe, in [cm/s]) (converted)
Measurement label: Papp at 5 h, 200 µM (×10⁻⁶ cm/s)

compound="CC(C)(C)[S@+]([O-])N1Cc2cc(C(=O)NCc3ccccc3F)nc(-c3cccc(-c4cccnc4)c3)c2[C@@H]1CCO [Tan003-D20]" assay_result=2.4
compound="CC(C)(C)[S@@+]([O-])N1Cc2cc(C(=O)NCc3ccc4c(c3)OCO4)nc(-c3cccc(-c4cccnc4)c3)c2[C@H]1CCO [Tan003-008]" assay_result=1.82
compound="CC(C)NC(=O)N1Cc2cc(C(=O)NCC(F)(F)F)nc(-c3cccc(-c4cc5ccccc5o4)c3)c2[C@H]1CCO [Tan003-M03]" assay_result=3.98
